# assayed.system: CYP2C9 (Homo sapiens)
# Sequence (P11712 whole entry): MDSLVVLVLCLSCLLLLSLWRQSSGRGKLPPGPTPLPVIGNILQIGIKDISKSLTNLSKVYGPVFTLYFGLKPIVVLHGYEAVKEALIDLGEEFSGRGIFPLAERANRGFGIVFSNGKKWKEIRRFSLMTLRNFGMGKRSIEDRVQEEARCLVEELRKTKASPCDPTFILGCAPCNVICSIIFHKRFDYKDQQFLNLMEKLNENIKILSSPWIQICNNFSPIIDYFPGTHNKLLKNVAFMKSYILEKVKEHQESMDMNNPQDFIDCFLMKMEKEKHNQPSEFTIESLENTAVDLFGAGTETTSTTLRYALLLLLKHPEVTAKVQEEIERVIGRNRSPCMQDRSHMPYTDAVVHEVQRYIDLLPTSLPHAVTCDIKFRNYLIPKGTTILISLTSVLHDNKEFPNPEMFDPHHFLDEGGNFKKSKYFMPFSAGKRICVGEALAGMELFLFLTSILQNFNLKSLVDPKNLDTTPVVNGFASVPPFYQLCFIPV
For each record, write down the corresponding pIC50.
Note: pIC50 values are expressed as the negative base-10 logarithm of concentration in M.

IN: Please report the recorded pIC50 for "C=C(C)C(=O)Nc1ccc(-c2c(-c3ccc(N=S(=O)(CC)CC)cc3)c3c(N)ncnc3n2C)c(F)c1" .
OUT: 4.53

IN: # iterate: "[2H]C([2H])([2H])n1c(-c2ccc(NC(=O)C(=C)C)cc2F)c(-c2ccc(N=S3(=O)CCCC3)cc2)c2c(N)ncnc21"
OUT: 4.84

IN: Try the compound "C=C(C)C(=O)Nc1ccc(-c2c(-c3ccc(N=S4(=O)CCCC4)cc3)c3c(N)ncnc3n2C)c(F)c1"
OUT: 4.54

----------
# assayed.system: Ba/F3-TEL-FGFR2 (Homo sapiens, UniProt P21802+P41212)
# Sequence (P21802 481-770 limits assumed, one chain of several): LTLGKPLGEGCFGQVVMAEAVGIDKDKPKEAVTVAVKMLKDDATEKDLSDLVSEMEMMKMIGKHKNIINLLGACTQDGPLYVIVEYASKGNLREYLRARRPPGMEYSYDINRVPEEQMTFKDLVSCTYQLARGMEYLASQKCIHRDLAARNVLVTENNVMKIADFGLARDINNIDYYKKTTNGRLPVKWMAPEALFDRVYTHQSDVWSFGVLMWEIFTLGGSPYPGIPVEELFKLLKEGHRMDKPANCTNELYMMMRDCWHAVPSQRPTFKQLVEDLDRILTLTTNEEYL
# protocol.description: Cell viability (proliferation inhibition) of Ba/F3 cells, CellTiter Glo
# test.parameters: read-out: Ba/F3 cell FGFR2 (IC50 nM), 72 h
measurement.label: IC50 (nM)
Report the figure in nM without appending any unit label.

IN: Which IC50 value is on record for C=C(C)C(=O)Nc1ccc(-c2c(-c3ccc(N=S(=O)(N4CCCC4)C(F)(F)F)c(F)c3)c3c(N)ncnc3n2C)cc1 (stereo not shown) [Compound 47] ?
OUT: 2.7

IN: Next entry: CC#CC(=O)N1CC=C(c2c(-c3ccc(N=S4(=O)CCCCC4)cc3)c3c(N)ncnc3n2C)CC1 [Compound 66]
OUT: 27.8

IN: Another molecule to look at: C=C(C)C(=O)Nc1ccc(-c2c(-c3ccc(N=S4(=O)CC(C)(C)C4)c(F)c3)c3c(N)ncnc3n2C)cc1 [Compound 57]
OUT: 17.4

IN: Likewise for C=C(C)C(=O)Nc1ccc(-c2c(-c3ccc(N=S(C)(C)=O)cc3)c3c(N)ncnc3n2C)c(F)c1 [Compound 107] ?
OUT: 15.6

----------
Would you mind telling me the reported IC50 of each entry?
# assayed.system: Ba/F3-TEL-FGFR2 (Homo sapiens, UniProt P21802+P41212)
# protocol.description: Cell viability (proliferation inhibition) of Ba/F3 cells, CellTiter Glo
# test.parameters: read-out: Ba/F3 cell FGFR2 (IC50 nM), 72 h
Give the number; nM is assumed, so skip it.

IN: Suppose we examine the compound "C=C(C)C(=O)Nc1ccc(-c2c(-c3ccc(N=S4(=O)CCCCC4)c(Cl)c3)c3c(N)ncnc3n2C)cc1" ; what IC50 value has been reported?
OUT: 7.7

IN: Quick one: "C=C(C)C(=O)Nc1ccc(-c2c(-c3cc(F)c(N=S(=O)(CC)CC)cc3F)c3c(N)ncnc3n2C)c(F)c1"
OUT: 6.1

IN: Repeat with "[2H]C([2H])([2H])n1c(-c2ccc(NC(=O)C(=C)C)cc2Cl)c(-c2ccc(N=S3(=O)CCC3)c(F)c2)c2c(N)ncnc21"
OUT: 0.8

IN: What do you get for "C/C=C/C(=O)Nc1ccc(-c2c(-c3ccc(N=S4(=O)CCCCC4)c(F)c3)c3c(N)ncnc3n2C)cc1" ?
OUT: 15.4

----------
# assayed.system: Ba/F3-TEL-FGFR3 (Homo sapiens, UniProt P22607+P41212)
# Sequence (P22607 472-761 limits assumed, one chain of several): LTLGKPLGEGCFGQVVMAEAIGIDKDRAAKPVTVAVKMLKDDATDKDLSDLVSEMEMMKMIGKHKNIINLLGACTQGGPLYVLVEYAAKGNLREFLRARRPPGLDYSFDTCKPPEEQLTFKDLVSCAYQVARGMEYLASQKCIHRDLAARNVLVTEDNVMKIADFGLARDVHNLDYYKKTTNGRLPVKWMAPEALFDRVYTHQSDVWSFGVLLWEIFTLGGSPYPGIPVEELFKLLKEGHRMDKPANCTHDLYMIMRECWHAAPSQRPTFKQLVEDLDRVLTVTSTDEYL
# protocol.description: Cell viability (proliferation inhibition) of Ba/F3 cells, CellTiter Glo
# test.parameters: read-out: Ba/F3 cell FGFR3 (IC50 nM), 72 h
Mark Fulfilled only when IC50 stays strictly below 500 nM. Values equal to the cut-off are Not fulfilled.

IN: # check: IC50 < 500 nM for [2H]C([2H])([2H])n1c(-c2ccc(NC(=O)C(=C)C)cc2F)c(-c2ccc(N=S3(=O)CCCC3)c(F)c2)c2c(N)ncnc21 [Compound 94]
OUT: Fulfilled

IN: Same for C=C(C)C(=O)Nc1ccc(-c2c(-c3ccc(N=S(=O)(CC)CC)c(F)c3)c3c(N)ncnc3n2C)c(F)c1 [Compound 100]
OUT: Fulfilled

IN: How about this compound: C=C(C)C(=O)Nc1ccc(-c2c(-c3ccc(N=S4(=O)CCCCC4)c(F)c3)c3c(N)ncnc3n2C)c(F)c1 [Compound 7]
OUT: Not fulfilled

IN: Another compound: C=C(C)C(=O)Nc1ccc(-c2c(-c3ccc(N=S(=O)(N(C)C)C(F)(F)F)c(F)c3)c3c(N)ncnc3n2C)cc1 (stereo not drawn) [Compound 48]
OUT: Not fulfilled

IN: [2H]C([2H])([2H])n1c(-c2ccc(NC(=O)C(=C)C)cc2F)c(-c2ccc(N=S3(=O)CCCC3)cc2)c2c(N)ncnc21 [Compound 83] , same question.
OUT: Fulfilled

IN: Param item: C=C(C)C(=O)Nc1ccc(-c2c(-c3ccc(N=S4(=O)CCCCC4)cc3)c3c(N)ncnc3n2C)cc1 [Compound 4]
OUT: Not fulfilled

----------
# assayed.system: Ba/F3-TEL-FGFR1 (Homo sapiens, UniProt P11362+P41212)
# Sequence (P11362 478-767 limits assumed, one chain of several): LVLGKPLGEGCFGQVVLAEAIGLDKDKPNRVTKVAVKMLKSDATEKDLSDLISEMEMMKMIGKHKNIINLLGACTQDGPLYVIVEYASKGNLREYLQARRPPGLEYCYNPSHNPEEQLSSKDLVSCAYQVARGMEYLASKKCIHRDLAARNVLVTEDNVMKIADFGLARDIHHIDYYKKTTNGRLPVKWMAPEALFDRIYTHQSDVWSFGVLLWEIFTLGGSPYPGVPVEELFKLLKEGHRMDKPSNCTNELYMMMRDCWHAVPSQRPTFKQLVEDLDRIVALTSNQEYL
# protocol.description: Cell viability (proliferation inhibition) of Ba/F3 cells, CellTiter Glo
# test.parameters: read-out: Ba/F3 cell FGFR1 (IC50 nM), 72 h
Binarize IC50 at 700 nM; below is y, at or above is n.

IN: Criterion: IC50 strictly below 700 nM. Is it met by "C=C(C)C(=O)Nc1ccc(-c2c(-c3ccc(N=S4(=O)CCCC4)c(F)c3)c3c(N)ncnc3n2C)c(C(F)F)c1" ?
OUT: n

IN: Now the compound "C=C(C)C(=O)Nc1ccc(-c2c(-c3cc(F)c(N=S4(=O)CCC4)cc3F)c3c(N)ncnc3n2C)c(F)c1"
OUT: n

IN: Also, "C=C(C)C(=O)Nc1ccc(-c2c(-c3ccc(N=S4(=O)CCCC4)c(C)c3)c3c(N)ncnc3n2C)c(F)c1" please.
OUT: y

IN: Another: "C=C(C)C(=O)Nc1ccc(-c2c(-c3ccc(N=S4(=O)CC(C)(C)C4)cc3)c3c(N)ncnc3n2C)c(F)c1"
OUT: y

IN: Moving on to "[2H]C([2H])([2H])n1c(-c2ccc(NC(=O)C(=C)C)cc2F)c(-c2ccc(N=S3(=O)CCCC3)cc2)c2c(N)ncnc21"
OUT: y

IN: // next record "C=C(C)C(=O)Nc1ccc(-c2c(-c3ccc(N=S(C)(C)=O)cc3)c3c(N)ncnc3n2C)c(F)c1"
OUT: n

IN: Moving on to the next compound: "C=C(C)C(=O)Nc1ccc(-c2c(-c3ccc(N=S4(=O)CCC4)cc3)c3c(N)ncnc3n2C)c(F)c1"
OUT: y

Every entry's value here was drawn from patent EP4553077A1.
